assay: Lipophilicity, log D of compound at pH 7.4 by LC-MS analysis; format: physicochemical; settings: buffer
readout-name: logD

Answered examples (4):
molecule	readout-name	number
O=C(CCN1CCC(Cc2ccccc2)CC1)c1ccc2[nH]ncc2c1	logD	2.64
OC(CCN1CCC(Cc2ccccc2)CC1)c1ccc2[nH]ncc2c1 (configuration not stated)	logD	1.75
c1ccc(CC2CCN(CCCc3ccc4[nH]ncc4c3)CC2)cc1	logD	2.63
Fc1ccc(CC2CCN(CC#Cc3ccc4[nH]ncc4c3)CC2)cc1	logD	4.35

P. Oc1ccc(C#CCN2CCC(Cc3ccc(F)cc3)CC2)cc1
Q. OC(CCN1CCC(Cc2ccc(F)cc2)CC1)c1ccc2[nH]ncc2c1 (configuration not stated)
# argmax over logD for candidates P and Q Record your answer as the label of the chosen record.
P
(P: 4.4, Q: 2.02)

* * *

target: Glutamate receptor ionotropic, NMDA 2B (Homo sapiens, UniProt Q05586+Q13224); assay: Antagonist activity at GluN2B receptor (unknown origin) expressed in Xenopus oocytes coexpressing GluN1a at -70 mV holding potential in presence of (S)-glutamate/glycine by TEVC analysis
Sequence (Q13224 whole entry, one chain of several): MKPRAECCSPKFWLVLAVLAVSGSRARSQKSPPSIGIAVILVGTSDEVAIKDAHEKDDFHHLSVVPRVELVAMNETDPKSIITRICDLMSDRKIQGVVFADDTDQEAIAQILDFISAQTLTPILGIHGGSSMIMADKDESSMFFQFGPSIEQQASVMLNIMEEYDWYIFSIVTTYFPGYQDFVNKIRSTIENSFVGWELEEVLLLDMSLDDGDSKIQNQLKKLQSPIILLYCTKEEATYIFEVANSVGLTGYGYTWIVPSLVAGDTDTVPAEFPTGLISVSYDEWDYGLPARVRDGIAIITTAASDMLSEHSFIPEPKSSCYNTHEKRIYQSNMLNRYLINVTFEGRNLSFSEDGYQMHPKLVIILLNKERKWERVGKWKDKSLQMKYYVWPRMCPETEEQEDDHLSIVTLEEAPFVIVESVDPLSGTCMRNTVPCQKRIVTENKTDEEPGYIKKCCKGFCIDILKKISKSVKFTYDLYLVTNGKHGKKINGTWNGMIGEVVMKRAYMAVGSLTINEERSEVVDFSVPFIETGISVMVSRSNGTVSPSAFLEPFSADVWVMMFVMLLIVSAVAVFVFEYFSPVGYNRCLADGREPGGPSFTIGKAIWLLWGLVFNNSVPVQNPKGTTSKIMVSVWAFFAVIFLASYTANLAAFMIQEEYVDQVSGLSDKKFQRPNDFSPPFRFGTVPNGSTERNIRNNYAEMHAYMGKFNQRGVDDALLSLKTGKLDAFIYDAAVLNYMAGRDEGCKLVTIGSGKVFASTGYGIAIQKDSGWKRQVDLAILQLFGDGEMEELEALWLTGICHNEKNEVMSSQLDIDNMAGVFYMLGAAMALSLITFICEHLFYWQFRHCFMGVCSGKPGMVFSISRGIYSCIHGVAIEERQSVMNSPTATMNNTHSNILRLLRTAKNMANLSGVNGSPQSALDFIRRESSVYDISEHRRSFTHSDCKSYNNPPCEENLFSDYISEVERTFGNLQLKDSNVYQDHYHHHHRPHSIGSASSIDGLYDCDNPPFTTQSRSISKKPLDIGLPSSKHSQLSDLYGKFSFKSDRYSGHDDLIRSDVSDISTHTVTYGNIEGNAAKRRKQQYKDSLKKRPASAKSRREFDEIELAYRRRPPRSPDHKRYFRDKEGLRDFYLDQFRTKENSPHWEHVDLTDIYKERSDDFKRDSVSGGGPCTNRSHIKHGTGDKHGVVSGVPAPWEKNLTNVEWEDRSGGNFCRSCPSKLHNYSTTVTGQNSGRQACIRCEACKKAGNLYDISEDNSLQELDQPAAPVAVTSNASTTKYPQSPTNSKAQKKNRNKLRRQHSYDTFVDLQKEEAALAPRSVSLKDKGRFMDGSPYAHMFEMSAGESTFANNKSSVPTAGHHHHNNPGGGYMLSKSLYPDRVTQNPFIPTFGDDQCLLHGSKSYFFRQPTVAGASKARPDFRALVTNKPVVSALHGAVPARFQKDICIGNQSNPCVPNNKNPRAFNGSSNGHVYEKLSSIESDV
pIC50: −log10 of the molar value.
readout-name: pIC50

1. O[C@@H](CCN1CCC(Cc2ccccc2)CC1)c1ccc2[nH]ncc2c1 7.14
2. O[C@H](CCN1CCC(Cc2ccccc2)CC1)c1ccc2[nH]ncc2c1 7.21

* * *

assay: Metabolic stability in rat liver microsome assessed as intact compound incubated for 90 mins in presence of NADPH by LC-MS analysis; format: ADME; settings: liver microsomes, read-out: Stability
readout-name: remaining at 1.5 h

1) O[C@@H](CCN1CCC(Cc2ccccc2)CC1)c1ccc2[nH]ncc2c1 ~67%

Pending molecule:
If you can, please state the reported remaining at 1.5 h value of "O[C@H](CCN1CCC(Cc2ccccc2)CC1)c1ccc2[nH]ncc2c1" .
~67%

* * *

target: Sigma non-opioid intracellular receptor 1 (Cavia porcellus); test: Displacement of [3H]-(+)-pentazocine from sigma1 receptor in guinea pig brain membrane assessed as inhibition constant measured after 120 mins by scintillation counting method
Sequence (Q60492 whole entry): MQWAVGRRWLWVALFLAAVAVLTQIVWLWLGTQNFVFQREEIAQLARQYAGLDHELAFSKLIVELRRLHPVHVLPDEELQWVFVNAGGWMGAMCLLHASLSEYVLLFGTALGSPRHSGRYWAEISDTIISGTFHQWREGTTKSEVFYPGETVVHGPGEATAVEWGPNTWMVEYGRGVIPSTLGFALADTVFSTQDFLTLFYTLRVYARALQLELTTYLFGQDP
readout-name: Ki (µM)

1. C(#Cc1ccc2[nH]ncc2c1)CN1CCC(Cc2ccccc2)CC1 0.026

a. Fc1ccccc1CC1CCN(CC#Cc2ccc3[nH]ncc3c2)CC1
b. O=C(CCN1CCC(Cc2ccc(F)cc2)CC1)c1ccc2[nH]ncc2c1
c. Fc1ccc(CC2CCN(CCCc3ccc4[nH]ncc4c3)CC2)cc1
d. C(=C\c1ccc2[nH]ncc2c1)/CN1CCC(Cc2ccccc2)CC1
Order the entries by their reported Ki, beginning at the minimum. API: response body holds the labels in the requested order.
d, c, b, a

A. Cn1ncc2cc(C#CCN3CCC(Cc4ccccc4)CC3)ccc21
B. Fc1ccc(CC2CCN(C/C=C\c3ccc4[nH]ncc4c3)CC2)cc1
Look at A and B . Which one has the lower recorded Ki number? Answer with the label corresponding to your selection.
A
(A: 0.02 µM, B: 0.077 µM)

* * *

target: Glutamate receptor ionotropic, NMDA 2B (Homo sapiens, UniProt Q05586+Q13224); experiment: Displacement of [3H]ifenprodil from human GluN2B expressed in mouse L-M(TK-) cell membrane coexpressing GluN1a assessed as inhibition constant measured after 120 mins by competitive binding assay
readout-name: Ki (nM)

Take a look at these entries with their results.
compound	units-label	number
O[C@@H](CCN1CCC(Cc2ccccc2)CC1)c1ccc2[nH]ncc2c1	nM	93
Fc1ccc(CC2CCN(CC#Cc3ccc4cn[nH]c4c3)CC2)cc1	nM	35
OC(CCN1CCC(Cc2ccc(F)cc2)CC1)c1ccc2[nH]ncc2c1 (stereo unspecified)	nM	32

A. C(#Cc1ccc2cn[nH]c2c1)CN1CCC(Cc2ccccc2)CC1
B. Fc1ccccc1CC1CCN(CC#Cc2ccc3[nH]ncc3c2)CC1
C. C(=C/c1ccc2[nH]ncc2c1)/CN1CCC(Cc2ccccc2)CC1
Order the 3 compounds from highest to lowest Ki. Output spec: a listing of the labels in the requested order.
C, A, B
(C: 120 nM, A: 53 nM, B: 25 nM)
